test: yeast display, Sf9 membrane polyspecificity reagent, FACS + sequencing; frameworks hold sequencing errors
endpointName: polyreactivity (PSR sort gate)

Consider the following illustrative entries.
Exercise: Supply measured polyreactivity (PSR sort gate) of QVQLVESGGGLVQAGGSLRLSCAASGRILILNAMGWYRQAPGKERELVAAITNGGSTNYADSVKGRFTISRDNAKNSVYLQMNSLKPEDTAVYYCAARLYSYDYYTVLKLFDYWGQGTQVTVSS in your reply.
Key: low polyreactivity

Exercise: Supply measured polyreactivity (PSR sort gate) of QVQLVESGGGLVQAGGSLRLSCAASGRTFGYNVMGWYRQAPGKERELVAAINRGGGSTYYADSVKGRFTISRDNANNTVYLQMNSLKPEDTAVYYCIKRYRVWFDYWGQGTQVTVSS in your reply.
Key: high polyreactivity

Exercise: Supply measured polyreactivity (PSR sort gate) of QVQLVESGGGLVQAGGSLRLSSAASGRTIDGNAMVWYRQAPGKEREWVATITRGGSTYYADSVKGRFTISRDNAKNTVYLQMNSLKPEDTSVYYCAARYYGRSQHHFDYWGQGTQVTVSS in your reply.
Key: high polyreactivity

Exercise: Supply measured polyreactivity (PSR sort gate) of QVQLVESGGGLVLAGGSLRLSCAASRFILRDNGMGWNRKAPVKERELVAAISERGGRTDYADSVKGRFTISRDNAKNTVYLQMNSLKPEDTAVYYCAAEDIANFYYWGQGPQVTVSS in your reply.
Key: high polyreactivity

Consider now this further sequence.
Exercise: Supply measured polyreactivity (PSR sort gate) of QVQLVESGGGLVQEGGSLRLICAASGRIFRYYAMGWYRQAPGKERELVASITYSGGRTNYADSVKGRFTISRDNAKNTVYVQMNSLKPEDTAVYYCNAAYVYYYPHYRYAPTAVDYDYWGQGTQVTVSS in your reply.
Key: low polyreactivity
